- test-method-notes: activity coefficient (dimensionless); of the first substance listed, at infinite dilution; xn = mol fraction of the nth substance listed
- condition-info: 343 K; Liquid; Chromatography; x1 = 0
readout-type: activity coefficient

q: Can you share its activity coefficient? I mean this molecule: c1ccccc1 [benzene] + CCCC[n+]1ccn(C)c1.O=S(=O)([N-]S(=O)(=O)C(F)(F)F)C(F)(F)F
a: 0.99

q: Could you tell me which activity coefficient is on file for CCCO [propan-1-ol] + CCCCn1cc[n+](C)c1.[Cl-] ?
a: 0.292

q: Which activity coefficient value is on record for Clc1ccccc1 [chlorobenzene] + CCCC[n+]1ccn(C)c1.O=S(=O)([N-]S(=O)(=O)C(F)(F)F)C(F)(F)F ?
a: 1.54

q: Bench note: what activity coefficient did Cc1ccco1 [2-methylfuran] + CCCCn1cc[n+](C)c1.[Cl-] show?
a: 3.96

q: Quick check: activity coefficient of Cc1ccc(C)o1 [2,5-dimethylfuran] + CCCCn1cc[n+](C)c1.[Cl-] ?
a: 9.64

q: Which activity coefficient value belongs to CCc1ccco1 [2-ethylfuran] + CCCC[n+]1ccn(C)c1.O=S(=O)([N-]S(=O)(=O)C(F)(F)F)C(F)(F)F ?
a: 1.52

q: # activity coefficient lookup, item Clc1ccccc1 [chlorobenzene] + CCCCn1cc[n+](C)c1.[Cl-]
a: 3.82

q: Reported activity coefficient for CO [methanol] + CCCCn1cc[n+](C)c1.[Cl-] : what is it?
a: 0.109

q: activity coefficient for Cc1ccccc1 [toluene] + CCCC[n+]1ccn(C)c1.O=S(=O)([N-]S(=O)(=O)C(F)(F)F)C(F)(F)F ?
a: 1.39

q: Quick check: activity coefficient of CO [methanol] + CCCC[n+]1ccn(C)c1.O=S(=O)([N-]S(=O)(=O)C(F)(F)F)C(F)(F)F ?
a: 1.06

q: Field request: activity coefficient | item: Cc1ccccc1 [toluene] + CCCCn1cc[n+](C)c1.[Cl-]
a: 7.3

q: Which activity coefficient reading was recorded for the molecule CCCO [propan-1-ol] + CCCC[n+]1ccn(C)c1.O=S(=O)([N-]S(=O)(=O)C(F)(F)F)C(F)(F)F ?
a: 1.51

q: Please report the recorded activity coefficient for Cc1ccco1 [2-methylfuran] + CCCC[n+]1ccn(C)c1.O=S(=O)([N-]S(=O)(=O)C(F)(F)F)C(F)(F)F .
a: 1.17

q: Would you kindly share the measured activity coefficient for CCO [ethanol] + CCCC[n+]1ccn(C)c1.O=S(=O)([N-]S(=O)(=O)C(F)(F)F)C(F)(F)F ?
a: 1.28

q: Field request: activity coefficient | item: Cc1ccc(C)o1 [2,5-dimethylfuran] + CCCC[n+]1ccn(C)c1.O=S(=O)([N-]S(=O)(=O)C(F)(F)F)C(F)(F)F
a: 1.88

q: Reported activity coefficient, molecule CCc1ccccc1 [ethylbenzene] + CCCCn1cc[n+](C)c1.[Cl-] : ____
a: 12.4

q: // query activity coefficient value for entry c1ccoc1 [furan] + CCCC[n+]1ccn(C)c1.O=S(=O)([N-]S(=O)(=O)C(F)(F)F)C(F)(F)F
a: 0.727
